Cited source for all entries: patent US20220315908A1

Exercise: for every item that follows, state its recorded log 10 of the ratio of surviving CFU for treated vs. untreated cells.
# Tested on: G. piotii strain Gv_17
# ASSAY_NAME: Quantitative reduction in viable CFU assay in bacterial suspension
# Format: cell-based, Gardnerella piotii
# CONDITION_INFO: 5 hours, pH 5.0, anaerobic, 10 ul endolysin (0.2 mg/ml where possible) + 90 ul 5e7 CFU/ml, average of triplicate
Please state the figure in log 10; there is no need to write the unit.

Query: I would be grateful if you could share the reported log 10 of the ratio of surviving CFU for treated vs. untreated cells for H7B7: natural Gardnerella prophage endolysin from strain AMD (protein, EL7_strain_AMD, natural Gardnerella prophage endolysin from strain AMD) MSKKGIDVSEWQGDIDFNAVKASGVEFVIIRAGYGIGCKDKWFEQNYRKAKTAGLDVGAYWYSYANSASEAAEEAQSCANMLSGKSFEYPVYFDLEEKSQLNRGRAFCDSLITSFCSKLETYGYYAGFYTSLSTANNLVSSHVRNRYALWIAQWNTHCSYQGSYGLWQYSSSGSVPGVAGRVDMDYAYKDYPSIIKNAGLNGCKNGGSDQAARTSSIDEVAREVINGAWGNGNERKQRLTQAGYDYTSVQNKVNKLLGVKACRKSVDELAREVIRGTWGNGNERKNRLTQAGYDYDTVQKRVNELL .
Result: −1.2

Query: I would be grateful if you could share the reported log 10 of the ratio of surviving CFU for treated vs. untreated cells for H10B10: natural Gardnerella prophage endolysin from strain G30-4 (protein, EL10_strain_G30-4) MSKRGIDVSVWQGDIDFNAVKASGVEFVIIRAGYGIGHKDKWFEENYRKAKTVGLDVGAYWYSYASSAGEASEEAQSCVNILSGKSFEYPVYFDLEEKSQLNRGRDFCDSLITSFCNKLEACGYYAGFYTSLSVANNLVSSHVRDRYALWIAQWNTHCSYQGSYGLWQYSSSGSVNGIAGRVDMDYAYVDYPSVIKNAGLNGYKNGGSYTAPQISSIDEVAREVINGDWGNGNERKQRLTSAGYDYASVQNKVNELLGVKAYRKSVDELAREVIRGTWGNGSTRKQRLTQAGYDYNAVQKRVNELL .
Result: −2.4

Query: I would be grateful if you could share the reported log 10 of the ratio of surviving CFU for treated vs. untreated cells for H11B11: natural Gardnerella prophage endolysin from strain JCP8017A (protein, EL11_strain_JCP8017A, natural Gardnerella prophage endolysin from strain JCP8017A) MSKRGIDVSVWQGDIDFNAVKASGVEFVIIRAGYGIGHKDKWFEQNYRKAKTTGLDVGAYWYSYASSAGEAAEEAQSCVNILSGKSFEYPVYFDLEEKSQLNRGRDFCDSLITSFCNKLETYGYYAGFYTSLSVANNLVSSHVRDRYALWIAQWNTHCDYQGSYGLWQYSSSGSVDGIAGRVDMDYTYVDYPSVIKKAGLNGYKNGGSYTAPQTSSIDEVAREVINGDWGNGNERKNRLTSAGYDYTSVQNKVNELLGVKAYRKSVDELAREVIRGTWGNGSTRKQRLTQAGYDYDAVQKRVNELL .
Result: −1.0
